The origin of these recorded values is the supplement of paper PMC5662764.

- Tested on: BT20
- ASSAY_NAME: normalised growth rate inhibition (GR value) relative to DMSO control (GR (1 = untreated growth, 0 = cytostasis, <0 = cytotoxic)); higher = less growth inhibition
- ASSAY_SETUP: 0.04 µM; 72 h
A collection of compounds and their measured normalised growth rate inhibition
Output: the number by itself.

Cc1nc(NC(=O)N2CCC[C@H]2C(N)=O)sc1-c1ccnc(C(C)(C)C(F)(F)F)c1; 1.04
CC(=O)Nc1cccc(-n2c(=O)n(C3CC3)c(=O)c3c(Nc4ccc(I)cc4F)n(C)c(=O)c(C)c32)c1; 0.71
Cc1cnc(Nc2ccc(OCCN3CCCC3)cc2)nc1Nc1cccc(S(=O)(=O)NC(C)(C)C)c1; 1.04
C[C@@H](N)c1ccc(C(=O)Nc2ccnc3[nH]ccc23)cc1; 0.994
CC[C@@H]1C(=O)N(C)c2cnc(Nc3ccc(C(=O)NC4CCN(C)CC4)cc3OC)nc2N1C1CCCC1; -0.177

Bench note: what normalised growth rate inhibition did Cc1cn(-c2cc(NC(=O)c3ccc(C)c(Nc4nccc(-c5cccnc5)n4)c3)cc(C(F)(F)F)c2)cn1 show?
1

Would you kindly share the measured normalised growth rate inhibition for O=c1cc(N2CCOCC2)oc2c(-c3cccc4c3sc3ccccc34)cccc12 ?
1.06

Look at this compound and give its reported normalised growth rate inhibition. C[C@@H](Oc1cc(-c2cnn(C3CCNCC3)c2)cnc1N)c1c(Cl)ccc(F)c1Cl
0.805

Can you look up the measured normalised growth rate inhibition of Cc1nc(Nc2ncc(C(=O)Nc3c(C)cccc3Cl)s2)cc(N2CCN(CCO)CC2)n1 for me?
0.622

What value of normalised growth rate inhibition has been recorded for this entry: CCCS(=O)(=O)Nc1ccc(F)c(C(=O)c2c[nH]c3ncc(Cl)cc23)c1F
1.01

Name the recorded normalised growth rate inhibition for COc1cc(N2CCC(C(N)=O)CC2)ccc1Nc1nc(N)c(Cl)c(Nc2ccccc2S(=O)(=O)C(C)C)n1 .
0.747

Would you kindly share the measured normalised growth rate inhibition for CC1=C(CO)C(=O)O[C@@H]([C@@H](C)[C@H]2CC[C@H]3[C@@H]4C[C@H]5O[C@]56[C@@H](O)C=CC(=O)[C@]6(C)[C@H]4CC[C@]23C)C1 ?
1.04

Please look up its normalised growth rate inhibition: O=c1[nH]c2ccccc2n1C1CCN(Cc2ccc(-c3[nH]c4cc5ncnc5cc4nc3-c3ccccc3)cc2)CC1
0.831

Consider the compound Nc1cc(C(F)(F)F)c(-c2cc(N3CCOCC3)nc(N3CCOCC3)n2)cn1 and give its measured normalised growth rate inhibition.
1.01

# get_value(readout='normalised growth rate inhibition', item= Cn1cc(-c2[nH]c3cc(NC(=O)[C@H](N)C4CCCCC4)cc4c3c2C=NNC4=O)cn1 )
0.886

Item under review: Cc1ncc(-c2ccnc(Nc3ccc(S(C)(=O)=O)cc3)n2)n1C(C)C . Reported normalised growth rate inhibition?
0.884
